targetOrTestSystem: 3A βarr1 (F388A/V387C/I386A triple mutant of the βarr1–12-387 C-tail sensor) (human) (UniProt P49407)
assayProcedure: single-molecule FRET
Where no end group is shown, it is not given here. [ ]: non-standard residue; d: D form. pT = C[C@@H](OP(=O)(O)O)[C@H](N)C(=O)O; pS = N[C@@H](COP(=O)(O)O)C(=O)O
recordedEndpoint: EC50 (nM)
# value in nM; strip the unit string

Recorded EC50 for ARGR[pT]PP[pS]LGPQDE[pS]C[pT][pT]A[pS][pS][pS]LAKDTSS , please?
400

Sourced from paper PMC12157425
